- Test system: NCI-H441
- method: Antiproliferative activity against human H441 cells after 48 hrs by MTT assay
- Type: functional, cell-based
- condition summary: NCI-H441, 48 h
measured property: pIC50
By convention, pIC50 is the negative base-10 log of a molar concentration.

# query: pIC50 of entry `Oc1ccc2[nH]cc(C(c3c(Cl)c(Cl)c(C(c4c[nH]c5ccc(O)cc45)c4c[nH]c5ccc(O)cc45)c(Cl)c3Cl)c3c[nH]c4ccc(O)cc34)c2c1`
6.22

meta.source: ChEMBL document CHEMBL4477263
